IC50 for assorted compounds
molecular target: WT EGFR (Homo sapiens (Human)); test: Kinase inhibition assay (HTRF), WT EGFR; format: biochemical; details: HTRF Kinase TK kit, 10 min pre-incubation, 20 min reaction
Sequence (P00533 25-1210): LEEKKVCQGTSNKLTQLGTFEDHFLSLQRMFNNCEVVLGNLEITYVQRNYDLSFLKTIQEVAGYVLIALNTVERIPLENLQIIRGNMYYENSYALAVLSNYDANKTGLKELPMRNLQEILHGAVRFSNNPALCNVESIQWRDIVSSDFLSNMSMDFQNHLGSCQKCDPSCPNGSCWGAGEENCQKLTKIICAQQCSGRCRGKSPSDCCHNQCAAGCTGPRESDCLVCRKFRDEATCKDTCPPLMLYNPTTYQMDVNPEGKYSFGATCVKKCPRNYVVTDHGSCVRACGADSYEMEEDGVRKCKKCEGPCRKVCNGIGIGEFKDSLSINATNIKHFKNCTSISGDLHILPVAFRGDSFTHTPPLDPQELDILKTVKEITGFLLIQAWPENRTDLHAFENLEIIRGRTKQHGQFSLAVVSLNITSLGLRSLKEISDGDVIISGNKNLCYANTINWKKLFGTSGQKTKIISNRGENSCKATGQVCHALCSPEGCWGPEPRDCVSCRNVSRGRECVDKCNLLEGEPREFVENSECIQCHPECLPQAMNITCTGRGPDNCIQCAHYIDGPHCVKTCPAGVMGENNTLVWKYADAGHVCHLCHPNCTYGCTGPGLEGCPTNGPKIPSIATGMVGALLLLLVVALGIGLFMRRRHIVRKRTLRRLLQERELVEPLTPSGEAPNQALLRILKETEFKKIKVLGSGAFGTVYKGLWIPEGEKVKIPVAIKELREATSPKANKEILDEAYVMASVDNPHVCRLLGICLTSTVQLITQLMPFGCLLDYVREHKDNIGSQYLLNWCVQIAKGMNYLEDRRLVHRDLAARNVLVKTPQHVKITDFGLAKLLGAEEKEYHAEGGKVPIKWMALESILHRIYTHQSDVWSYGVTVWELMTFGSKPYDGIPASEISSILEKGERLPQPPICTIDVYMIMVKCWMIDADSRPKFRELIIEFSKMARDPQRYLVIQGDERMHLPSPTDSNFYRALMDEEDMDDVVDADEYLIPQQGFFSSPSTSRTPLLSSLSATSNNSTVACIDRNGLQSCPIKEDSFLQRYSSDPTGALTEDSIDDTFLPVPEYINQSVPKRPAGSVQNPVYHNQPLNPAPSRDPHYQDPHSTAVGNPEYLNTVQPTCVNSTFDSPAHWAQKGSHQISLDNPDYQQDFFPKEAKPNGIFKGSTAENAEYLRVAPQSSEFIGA

Some entries whose results are on file:
- chemicalStructure: "C=CC(=O)Nc1cc(Nc2nccc(-c3cc(F)c4nc(C)cn4c3)n2)c(OC)cc1N(C)CCN(C)C"
  IC50: "1 to 50 nM"
- chemicalStructure: "C=CC(=O)Nc1cc(Nc2nccc(-c3cc(F)c4nc(C)n(C5CC5)c4c3)n2)c(OC)cc1N(C)CCN(C)C"
  IC50: "1 to 50 nM"
- chemicalStructure: "C=CC(=O)Nc1cc(Nc2nccc(-c3cc(F)c4cnn(C(C)C)c4c3)n2)c(OC)cc1N(C)CCN(C)C"
  IC50: "1 to 50 nM"
- chemicalStructure: "C=C(C)c1c(C)nc2c(F)cc(-c3nc(Nc4ccc(N5CCN(C)CC5)cc4OC)ncc3F)cn12"
  IC50: "> 100 nM"
- chemicalStructure: "C=CC(=O)Nc1cc(Nc2nccc(-c3cc(F)c4nn(C)c(C(C)C)c4c3)n2)c(OC)cc1N(C)CCN(C)C"
  IC50: "< 1 nM"

Let us examine a further case.
Given the entry `C=CC(=O)Nc1cc(Nc2nccc(-c3cc(OC(C)(C)C)c4nc(C)n(C(C)C)c4c3)n2)c(OC)cc1N(C)CCN(C)C` , report its measured IC50. < 1 nM

* * *

molecular target: EGFR [L858R/T790M] (Homo sapiens (Human), UniProt P00533, L858R/T790M); assay: Kinase inhibition assay (HTRF), EGFR [L858R/T790M]; type: biochemical
Sequence (P00533 25-1210 T790M/L858R): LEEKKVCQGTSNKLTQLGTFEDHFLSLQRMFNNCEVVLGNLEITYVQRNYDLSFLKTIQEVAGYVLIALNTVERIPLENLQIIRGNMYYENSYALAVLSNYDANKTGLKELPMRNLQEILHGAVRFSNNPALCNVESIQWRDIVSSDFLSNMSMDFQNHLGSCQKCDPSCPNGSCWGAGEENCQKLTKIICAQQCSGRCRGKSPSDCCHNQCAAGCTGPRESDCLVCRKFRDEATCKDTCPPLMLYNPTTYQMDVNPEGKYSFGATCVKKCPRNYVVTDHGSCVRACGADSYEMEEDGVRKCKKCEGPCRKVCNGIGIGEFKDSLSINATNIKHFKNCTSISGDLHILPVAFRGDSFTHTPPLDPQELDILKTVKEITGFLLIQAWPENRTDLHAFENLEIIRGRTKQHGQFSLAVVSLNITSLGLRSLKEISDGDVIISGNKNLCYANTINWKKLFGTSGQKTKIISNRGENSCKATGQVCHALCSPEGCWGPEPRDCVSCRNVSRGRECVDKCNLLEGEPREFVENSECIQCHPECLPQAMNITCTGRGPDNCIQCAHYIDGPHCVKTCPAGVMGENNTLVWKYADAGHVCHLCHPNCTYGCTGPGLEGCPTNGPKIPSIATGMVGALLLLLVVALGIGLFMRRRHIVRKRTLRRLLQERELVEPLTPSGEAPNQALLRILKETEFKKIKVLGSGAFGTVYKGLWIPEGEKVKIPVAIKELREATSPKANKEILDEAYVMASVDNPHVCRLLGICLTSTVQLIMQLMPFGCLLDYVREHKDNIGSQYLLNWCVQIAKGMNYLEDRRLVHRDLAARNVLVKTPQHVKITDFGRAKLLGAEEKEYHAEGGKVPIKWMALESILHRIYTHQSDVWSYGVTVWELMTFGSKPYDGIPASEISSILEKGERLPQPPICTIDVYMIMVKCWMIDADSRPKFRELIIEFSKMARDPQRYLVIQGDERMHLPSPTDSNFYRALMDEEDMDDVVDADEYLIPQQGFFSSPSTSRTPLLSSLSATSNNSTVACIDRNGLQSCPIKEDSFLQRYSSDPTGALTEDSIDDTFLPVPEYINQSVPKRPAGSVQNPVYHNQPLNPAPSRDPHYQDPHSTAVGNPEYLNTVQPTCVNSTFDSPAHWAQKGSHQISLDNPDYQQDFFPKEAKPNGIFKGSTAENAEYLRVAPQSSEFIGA
pIC50: −log10 of the molar value.
readoutType: pIC50

Given the entry `C=CC(=O)Nc1cc(Nc2nccc(-c3cc(F)c4nc(C)n(C(C)C)c4c3)n2)c(OC)cc1OCCOC` , report its measured pIC50. 7.00 to 7.30

* * *

IC50 for assorted compounds
system: Skin cancer cell line A431 (WT); test: Cytotoxicity test (MTS cell viability), A431; assay type: cell-based; conditions: Homo sapiens, A-431, 72 h, read-out: A431 (WT) IC50(nM)

Given the entry `C=CC(=O)Nc1cc(Nc2nccc(-c3cnc4nc(C)n(C(C)C)c4c3)n2)c(OC)cc1N(C)CCN(C)C` , report its measured IC50. 100 to 400 nM

Given the entry C=CC(=O)Nc1cc(Nc2nccc(-c3cn(C)c4ccccc34)n2)c(OC)cc1N(C)CCN(C)C [AZD9291, reference compound] , report its measured IC50. 100 to 400 nM

* * *

target: EGFR [L858R/T790M] (Homo sapiens (Human), UniProt P00533, L858R/T790M); assay: Kinase inhibition assay (HTRF), EGFR [L858R/T790M]; assay type: biochemical; conditions: HTRF Kinase TK kit, 10 min pre-incubation, 20 min reaction; read-out: EGFR(L858R/T790M) IC50
pIC50: −log10 of the molar value.
pIC50 for assorted compounds

Some entries whose results are on file:
- chemicalStructure: "C=CC(=O)Nc1cc(Nc2nccc(-c3ccc4nc(C)n(C(C)C)c4c3)n2)c(OC)cc1N(C)CCN(C)C"
  result: "> 9.00"
- chemicalStructure: "C=CC(=O)Nc1cc(Nc2ncc(C3CC3)c(-c3cc(F)c4nc(C)n(C(C)C)c4c3)n2)c(OC)cc1N(C)CCN(C)C"
  result: "7.30 to 9.00"
- chemicalStructure: "C=CC(=O)Nc1cc(Nc2nccc(-c3cc(F)c4nc(OC)n(C(C)C)c4c3)n2)c(OC)cc1N(C)CCN(C)C"
  result: "> 9.00"
- chemicalStructure: "C=CC(=O)Nc1cc(Nc2nccc(-c3ccc4nn(C)c(C(C)C)c4c3)n2)c(OC)cc1N(C)CCN(C)C"
  result: "> 9.00"
- chemicalStructure: "C=CC(=O)Nc1cc(Nc2nccc(-c3cc4c5c(c3)nc(OC)n5CCC4)n2)c(OC)cc1N(C)CCN(C)C"
  result: "> 9.00"
- chemicalStructure: "C=CC(=O)Nc1cc(Nc2nccc(-c3cc(F)c4nc(C)n(C5CC5)c4c3)n2)c(OC)cc1N(C)CCN(C)C"
  result: "> 9.00"
- chemicalStructure: "C=CC(=O)Nc1cc(Nc2ncc(F)c(-c3cc(F)c4nc(C)c(C(C)C)n4c3)n2)c(OC)cc1N(C)CCN(C)C"
  result: "> 9.00"
- chemicalStructure: "C=CC(=O)Nc1cc(Nc2nccc(-c3cc(F)c4nc(C)oc4c3)n2)c(OC)cc1N(C)CCN(C)C"
  result: "7.30 to 9.00"

Given the entry `C=CC(=O)Nc1cc(Nc2nccc(-c3cc(F)c4nc(C)n(C(C)C)c4c3)n2)c(OC)cc1N1CCC(N2CCOCC2)CC1` , report its measured pIC50. 7.30 to 9.00

Given the entry `C=CC(=O)Nc1cc(Nc2nccc(-c3cc(F)c4nc(C)n(C(C)C)c4c3)n2)c(OC)cc1N(C)CCN(C)C` , report its measured pIC50. > 9.00
